# Tested on: Coprococcus comes
# PROTOCOL: growth AUC relative to DMSO control (median of replicates) (fraction); higher = more growth (less inhibition), active = hit call of the paper
# CONDITION DETAILS: 20 µM; 24 h

| MOLECULE | TESTED SYSTEM | growth AUC |
| --- | --- | --- |
| S=C([S-])NCCNC(=S)[S-].[Zn+2] | Coprococcus comes | 0.994 |
| CCOc1nc(F)cc2nc(S(=O)(=O)Nc3c(Cl)cccc3C(=O)OC)nn12 | Coprococcus comes | 0.984 |
| Cn1cc(C(=O)Nc2ccc(F)cc2-c2ccc(Cl)c(Cl)c2)c(C(F)F)n1 | Coprococcus comes | 0.921 |
| CCC(C)c1cc([N+](=O)[O-])cc([N+](=O)[O-])c1OC(=O)OC(C)C (stereo not given) | Coprococcus comes | 0.867 |
| Clc1ccc(C(c2ccccc2Cl)C(Cl)Cl)cc1 (stereo not given) | Coprococcus comes | 1.03 |
| CCNc1nc(NC(C)CC)nc(OC)n1 (stereo not given) | Coprococcus comes | 1.02 |
| COc1cc(OC)nc(NC(=O)NS(=O)(=O)Nc2ccccc2C(=O)N(C)C)n1 | Coprococcus comes | 0.994 |
| FC(F)(F)/N=C1\SC(=Nc2ccccc2)N(c2ccccc2)\C1=N\C(F)(F)F | Coprococcus comes | 0.983 |
| CC(=O)Nc1cc(NS(=O)(=O)C(F)(F)F)c(C)cc1C | Coprococcus comes | 0.977 |
| O=C(Nc1ccc(F)cc1-c1ccc(Cl)c(Cl)c1)c1cn[nH]c1C(F)F | Coprococcus comes | 0.916 |

Where do these numbers come from? They come from the supplement of paper PMC12669032.
